- experimental.system: T1, dimeric human LTBR-Fc biotinylated (P1AE2401) (human, UniProt P36941 31-227, biotinylated in vitro)
- T1 construct: bought from R&D Systems (7538-LR); also called human LTBR ECD; not shown: human IgG1 Fc-Fragment
- experimental.protocol: competition ELISA vs human LIGHT
test.readout: rel. fit bottom (OD)
Kindly provide the numeric value in OD only, without the unit symbol.

Prompt: Given P1AE9459 (antibody, human IgG1, kappa, L234A L235A, V domains shown, human IgG1 PG LALA; from transgenic rabbit immunization) VH: EVQLVESGGGLVQPGGSLRLSCAASGFTFSSYTMNWVRQAPGKGLEWVSGVAPSGDRTYYTDSVKGRFTISRDNAKNTLDLQMTSLRAEDAAIYICAQGFAFTNWGQGTMVTVSS VL: DIQMTQSPSSLSASVGDRVTITCRASQGISSALAWFQQKPGKAPKRLIFDASSLDSGVPSRFSGSGSGTDFTLTISSLQPEDFATYYCQQYNNYPLTFGGGTKVEMKR , state its recorded rel. fit bottom (OD).
Completion: 0.4

Prompt: Now give it for P1AF0064 (antibody, human IgG1, kappa, L234A L235A, V domains shown, human IgG1 PG LALA constant regions; V domains from rat immunization; also called LTBR (0064)) VH: EVQLQQYGAELGKPGTSVKLSCKVSGYNIGNTYIHWVIQRPGKGLEWIGRIDPTNGNTICTEKFKNKATLTADLSSNTAYMQLSQLKSDDTAIYFCAPTTLTTPDSFAYWGQGTLVTVSS VL: DIQMTQSPSQLSASVGDRVTLSCKASQNIYKYLNWYQQKLGEAPRLLIYSTNILQTGIPSRFSGSGSGTDYTLTISSLQPEDAATYFCQKYYSGFTFGSGTKLEMKR too.
Completion: 0.1

Prompt: Now give it for P1AE1873 (CBE11) (antibody, human IgG1, kappa, L234A L235A, V domains shown) VH: EVQLVESGGGLVKPGGSLRLSCAASGFTFSDYYMYWFRQAPGKGLEWVATISDGGSYTYYPDSVKGRFTISRDNAKNSLYLQMSSLRAEDTAVYYCAREENGNFYYFDYWGQGTTVTVSS VL: DIQMTQSPSSLSASVGDRVTITCKAGQDIKSYLSWYQQKPGKAPKLLIYYATRLADGVPSRFSGSGSGTDYTLTISSLQPEDFATYYCLQHGESPWTFGGGTKLEIKR too.
Completion: 0.1

Prompt: Now give it for P1AE9452 (antibody, human IgG1, kappa, L234A L235A, V domains shown, human IgG1 PG LALA; from transgenic rabbit immunization; also called LTBR (9452)) VH: EVQLLESGGGLVQPGGSLRLSCAAAGFTFSSYPMTWVRQAPGKGLEWVSLISPSGATTYYADSVKGRFTISRDTSKNTLYLQMNSLRAEDTAVYYCAKNHYPDDVIIKNYYFYGVDVWGQGTTVTVSS VL: DIQMTQSPSSLSASVGDRVTITCRASQDISNYLNWYQQKPGKAPKSLIYAASSLQSGVPSRFSGSGSGTDFTLTISSLQPEDFANYYCQQTHTIPYSFGQGTNLEIKR too.
Completion: 0.9

Prompt: Now give it for P1AF0080 (antibody, human IgG1, kappa, L234A L235A, V domains shown, human IgG1 PG LALA; from transgenic rabbit immunization; also called LTBR (0080)) VH: EVQLLESGGGLVQPGGSLRLSCAASGFTFSYYAMTWVRQAPGKGLEWIGVINSGGGTYYTDSVKGRFTMSRDNSKNTLYLQVNSLRAEDTAVYYCAKASTADVWGQGTTVTVSS VL: DIQMTQSPSSLSASVGDRVTITCQASQGISNYLSWYQQKPGKAPKRLIFAASSLESGVPSRFSGSGSGTDFTLTISSLQPEDFATYYCQQYNSYSLTFGGGTKLEIKR too.
Completion: 0.8
